system: Venturia inaequalis; assay: Fungicidal test, Venturia inaequalis (VENTIN) on apples, PRCO; assay type: in vivo; settings: METHOD 2 (unbanded); further: test concentration or dose not given here
Readout: VENTIN 1 d Prot/Foir PRCO
Lab note: jot down the number only; don't add units.

Molecular string	VENTIN 1 d Prot/Foir PRCO
CC=C(C)c1nc2cc(CC(=O)Nc3snc(C)c3Cl)ccc2o1	37

Query VENTIN 1 d Prot/Foir PRCO for Cc1nsc(NC(=O)Cc2ccc3oc(-c4ccc(Cl)cc4Cl)nc3c2)c1Cl
0

Query VENTIN 1 d Prot/Foir PRCO for Cc1nsc(NC(=O)Cc2ccc3oc(-c4c(Cl)cc(C(F)(F)F)cc4Cl)nc3c2)c1Cl
45
